// data source = patent US20030166694A1

target: TF/VIIa (Homo sapiens, UniProt P08709); assay: Inhibition of TF/VIIa (table title: Affinity to receptors)
Sequence (P08709 213-466 limits assumed): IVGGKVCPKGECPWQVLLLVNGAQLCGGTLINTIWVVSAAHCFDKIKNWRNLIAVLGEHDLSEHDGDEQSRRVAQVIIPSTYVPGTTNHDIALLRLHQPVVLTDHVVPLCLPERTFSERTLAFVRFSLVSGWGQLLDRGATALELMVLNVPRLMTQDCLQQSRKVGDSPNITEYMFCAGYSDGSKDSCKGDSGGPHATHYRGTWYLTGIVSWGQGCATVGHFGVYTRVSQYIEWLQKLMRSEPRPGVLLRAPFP
Sequence (P08709 61-212 limits assumed): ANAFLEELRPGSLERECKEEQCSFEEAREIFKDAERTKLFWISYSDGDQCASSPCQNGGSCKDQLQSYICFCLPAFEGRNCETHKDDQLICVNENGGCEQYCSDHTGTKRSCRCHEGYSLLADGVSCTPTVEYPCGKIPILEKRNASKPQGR
Sequence (P13726 33-295 partner): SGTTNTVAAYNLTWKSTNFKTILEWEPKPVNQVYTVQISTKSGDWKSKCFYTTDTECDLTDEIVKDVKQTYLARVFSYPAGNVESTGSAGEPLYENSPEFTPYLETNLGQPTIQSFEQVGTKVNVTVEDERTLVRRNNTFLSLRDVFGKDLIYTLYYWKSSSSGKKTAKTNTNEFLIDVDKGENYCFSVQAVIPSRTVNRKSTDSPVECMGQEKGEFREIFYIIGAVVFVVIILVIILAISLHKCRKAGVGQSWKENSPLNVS
Measured parameter: IC50 (nM)

structure=CC(C)CN(CC(=O)Nc1ccc(-c2ccccc2S(N)(=O)=O)cc1)c1cccc(C(=N)N)c1 measured_parameter=IC50 quantitative_readout=370
structure=CN(CC(=O)Nc1ccc(-c2ccccc2S(N)(=O)=O)cc1)c1cccc(C(=N)N)c1 measured_parameter=IC50 quantitative_readout=25
structure=CCCN(CC(=O)Nc1ccc(-c2ccccc2S(C)(=O)=O)cc1)c1cccc(C(=N)N)c1 measured_parameter=IC50 quantitative_readout=31
structure=N=C(N)c1cccc(N(CC(=O)Nc2ccc(-c3ccccc3S(N)(=O)=O)cc2)Cc2ccccc2)c1 measured_parameter=IC50 quantitative_readout=15
structure=CCCN(CC(=O)Nc1ccc(-c2ccccc2S(N)(=O)=O)cc1)c1cccc(C(=N)N)c1 measured_parameter=IC50 quantitative_readout=44
